Reported AC50 values follow for various molecules
tgt: human PAH with the R408W mutation (Homo sapiens, UniProt P00439, R408W)
Construct: expressed in transfected cells
Sequence (P00439 1-452 R408W): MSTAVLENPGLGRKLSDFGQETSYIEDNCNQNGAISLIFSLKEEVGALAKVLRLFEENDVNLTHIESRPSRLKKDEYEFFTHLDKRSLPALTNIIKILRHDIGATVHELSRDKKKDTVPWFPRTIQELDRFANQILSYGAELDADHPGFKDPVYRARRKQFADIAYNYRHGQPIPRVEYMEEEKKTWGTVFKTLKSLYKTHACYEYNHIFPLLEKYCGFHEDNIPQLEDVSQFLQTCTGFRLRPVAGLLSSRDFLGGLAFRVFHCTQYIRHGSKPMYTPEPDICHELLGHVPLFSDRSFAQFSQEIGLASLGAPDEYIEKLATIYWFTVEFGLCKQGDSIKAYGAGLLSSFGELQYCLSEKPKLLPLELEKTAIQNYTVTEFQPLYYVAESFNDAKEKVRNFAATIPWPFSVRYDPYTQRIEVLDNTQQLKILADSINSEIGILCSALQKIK
assayComment: Cell Based Phenylalanine Flux Assay
conditionsUsed: A375 cells expressing human R408W PAH; 24 hrs compound incubation; 13C-Tyrosine by LC-MS; average where tested multiple times; read-out: AC50

# molecule, AC50
measured = [
    ("O=C(CCc1nccs1)N1CCc2[nH]cnc2[C@H]1c1nccs1 [Example 2139]", "> 5000 nM"),
    ("Cc1nnc(C(=O)N2CCc3[nH]cnc3[C@@H]2c2nc3ccccc3s2)s1 [Example 1042]", "> 5000 nM"),
    ("CC1(C)CCC(c2ncc(C(=O)N3CCc4[nH]cnc4[C@@H]3c3nc4ccccc4s3)s2)CC1 [Example 1354]", "1000 to 5000 nM"),
    ("Cc1ncoc1C(=O)N1CCc2[nH]cnc2[C@@H]1c1nc2ccccc2[nH]1 [Example 992]", "> 5000 nM"),
    ("CC(C)(F)c1ncc(C(=O)N2CCc3[nH]cnc3[C@@H]2c2nc3c(F)cccc3s2)s1 [Example 1485]", "500 to 1000 nM"),
    ("O=C(c1nnc(-c2ccc(F)cn2)o1)N1CCc2[nH]cnc2[C@@H]1c1nc2c(F)cccc2s1 [Example 1712]", "< 500 nM"),
    ("O=C(c1nnc(-c2cnn(C(F)F)c2)o1)N1CCc2[nH]cnc2[C@H]1c1nc2c(F)cccc2s1 [Example 1824]", "< 500 nM"),
    ("Cc1nc(-c2ccccc2)c(C(=O)N2CCc3[nH]cnc3[C@@H]2c2nc3ccccc3s2)o1 [Example 1519]", "> 5000 nM"),
    ("O=C(c1nc2ccccc2[nH]1)N1CCc2[nH]cnc2[C@H]1c1nc2ccccc2s1 [Example 1131]", "500 to 1000 nM"),
    ("O=C(c1oc(CCC2CC2)nc1C(F)(F)F)N1CCc2[nH]cnc2[C@H]1c1nc2c(F)cccc2s1 [Example 1625]", "< 500 nM"),
    ("[2H][C@@]1(c2nc3ccccc3s2)c2nc[nH]c2CCN1C(=O)c1cnc(-c2cnn(C)c2)s1 [Example 2157]", "< 500 nM"),
    ("CN(C)CCc1ccc2c(C(=O)N3CCc4[nH]cnc4[C@@H]3c3nc4c(F)cccc4s3)cnn2c1 [Example 1600]", "1000 to 5000 nM"),
    ("O=C(c1cnc(-c2cnn(CC(F)(F)F)c2)o1)N1CCc2[nH]cnc2[C@@H]1c1nc2ccccc2s1 [Example 1392]", "1000 to 5000 nM"),
    ("N#Cc1ccn2ncc(C(=O)N3CCc4[nH]cnc4[C@@H]3c3nc4cc(F)ccc4s3)c2c1 [Example 1159]", "> 5000 nM"),
    ("Cc1nn(C)cc1-c1ncc(C(=O)N2CCc3[nH]cnc3[C@H]2c2nc3ccccc3s2)s1 [Example 1379]", "< 500 nM"),
    ("CC(C)(O)c1nc(CF)c(C(=O)N2CCc3[nH]cnc3[C@@H]2c2nc3c(F)cccc3s2)o1 [Example 2066]", "1000 to 5000 nM"),
    ("CN(C)Cc1ccc2c(C(=O)N3CCc4[nH]cnc4[C@@H]3c3nc4c(F)cccc4s3)cnn2c1 [Example 1620]", "> 5000 nM"),
    ("CN(C)CCc1nc(C(F)(F)F)c(C(=O)N2CCCc3[nH]cnc3[C@@H]2c2nc3ccccc3s2)o1 (single isomer, unassigned) [Example 2126]", "1000 to 5000 nM"),
    ("c1cnc(N2CCc3[nH]cnc3[C@@H]2c2nc3ccccc3s2)nc1 [Example 1437]", "1000 to 5000 nM"),
    ("O=C(CC1CC1)N1CCc2[nH]cnc2[C@H]1c1nc2cccc(F)c2s1 [Example 1257]", "< 500 nM"),
    ("O=C(c1cnn2cc(F)ccc12)N1CCc2[nH]cnc2[C@H]1c1nc2ccc(Br)cc2[nH]1 [Example 967]", "500 to 1000 nM"),
    ("CC(C)(O)c1ccc2c(C(=O)N3CCc4[nH]cnc4[C@@H]3c3nc4c(F)cccc4s3)cnn2c1 [Example 1502]", "1000 to 5000 nM"),
    ("Cc1ncoc1C(=O)N1C[C@H](C)c2[nH]cnc2[C@@H]1c1nc2ccccc2s1 [Example 1545]", "> 5000 nM"),
    ("O=C(c1cnc(C(F)F)s1)N1CCc2[nH]cnc2[C@H]1c1nc2ccccc2s1 [Example 1521]", "< 500 nM"),
    ("O=C(C1CC1(F)F)N1CCc2[nH]cnc2[C@H]1c1nc2ccccc2s1 (single isomer, unassigned) [Example 1288]", "500 to 1000 nM"),
    ("Cc1ncoc1C(=O)N1C[C@H](C)c2[nH]cnc2[C@H]1c1nc2ccccc2s1 [Example 1546]", "500 to 1000 nM"),
    ("C[C@@H](O)c1nc(C(F)F)c(C(=O)N2CCc3[nH]cnc3[C@H]2c2nc3ccccc3s2)o1 [Example 2091]", "< 500 nM"),
]
